procedure text: Inhibition of partially purified human FTase using dan-syl-GCVLS peptide as substrate measured for 15 mins by fluorescence based assay
pIC50: −log10 of the molar value.
Entries annotated with measured pIC50
reported endpoint: pIC50

compound	recorded number
CC(C)=CCC/C(C)=C/CCC1(C)C=Cc2c3c(c4ccccc4c2O1)OC(C)(CC/C=C(\C)CCC=C(C)C)C=C3 (stereo not given)	5.77
CC(C)=CCCc1ccc2c(c1)C(=O)c1ccccc1C2=O	5.82
CC1(C)C=Cc2c(-c3c4c(c5ccccc5c3O)OC(C)(C)C=C4)c(O)c3ccccc3c2O1 [tectol]	5.68
CC(C)=CCCC1(C)C=Cc2c(-c3c4c(c5ccccc5c3O)OC(C)(CCC=C(C)C)C=C4)c(O)c3ccccc3c2O1 (stereo not given)	5.36
CC(C)=CCCC1(C)C=Cc2c3c(c4ccccc4c2O1)OC(C)(CCC=C(C)C)C=C3 (stereo not given)	5.36
CC(C)=CC1Oc2c(c3c(c4ccccc24)OC(C)(C)C=C3)C2=C1C(=O)c1ccccc1C2=O (stereo not given) [TECOMAQUINONE]	7.19
CC(C)=CCC/C(C)=C/CC/C(C)=C/C1Oc2c(c3c(c4ccccc24)OC(C)(CC/C=C(\C)CCC=C(C)C)C=C3)C2=C1C(=O)c1ccccc1C2=O (stereo not given)	5.00
CC(C)=CCC/C(C)=C/C1Oc2c(c3c(c4ccccc24)OC(C)(CCC=C(C)C)C=C3)C2=C1C(=O)c1ccccc1C2=O (stereo not given)	5.96
CC(C)=CCC/C(C)=C/CCc1ccc2c(c1)C(=O)c1ccccc1C2=O	5.85
CC(C)=CCC/C(C)=C/CCC1(C)C=Cc2c(-c3c4c(c5ccccc5c3O)OC(C)(CC/C=C(\C)CCC=C(C)C)C=C4)c(O)c3ccccc3c2O1 (stereo not given)	5.74
